// data source = paper PMC4203399

Test: thermodynamic and kinetic water solubility
Assay type: physicochemical
Conditions: thermodynamic from solid
metric_name: solubility thermodynamic at 48 h (nM)
Answer with a number only, understood to be in nM.

### Prompt Quick check: solubility thermodynamic at 48 h of CN1c2c(C(=O)Nc3ccc(NS(C)(=O)=O)cc3)nn(-c3cccc(Cl)c3)c2-c2ccccc2S1(=O)=O [2a] ?
### Response 3.98

###

Target: recombinant NS5BCΔ21 1b (Hepatitis C virus genotype 1b, UniProt O92972)
Experiment: NS5B primer dependent elongation
Type: biochemical
Details: read-out: inhibition of NS5B RdRp activity, screen at 50 μM
metric_name: inhibition at 50 µM

### Prompt Quick check: inhibition at 50 µM of `CN1c2c(C(=O)Nc3ccc(NS(C)(=O)=O)cc3)n[nH]c2-c2ccccc2S1(=O)=O` ?
### Response < 50%
